Entries with their measured IC50, system Epidermal growth factor receptor (Homo sapiens, UniProt P00533):
Quick reminder: number only, in nM, skip the unit.

Smiles Repr: COc1ccc(-c2nnc(-n3c(-c4ccccc4)nc4cc(Cl)ccc4c3=O)o2)cc1
Target Or System: Epidermal growth factor receptor (Homo sapiens, UniProt P00533)
Sequence (P00533 whole entry): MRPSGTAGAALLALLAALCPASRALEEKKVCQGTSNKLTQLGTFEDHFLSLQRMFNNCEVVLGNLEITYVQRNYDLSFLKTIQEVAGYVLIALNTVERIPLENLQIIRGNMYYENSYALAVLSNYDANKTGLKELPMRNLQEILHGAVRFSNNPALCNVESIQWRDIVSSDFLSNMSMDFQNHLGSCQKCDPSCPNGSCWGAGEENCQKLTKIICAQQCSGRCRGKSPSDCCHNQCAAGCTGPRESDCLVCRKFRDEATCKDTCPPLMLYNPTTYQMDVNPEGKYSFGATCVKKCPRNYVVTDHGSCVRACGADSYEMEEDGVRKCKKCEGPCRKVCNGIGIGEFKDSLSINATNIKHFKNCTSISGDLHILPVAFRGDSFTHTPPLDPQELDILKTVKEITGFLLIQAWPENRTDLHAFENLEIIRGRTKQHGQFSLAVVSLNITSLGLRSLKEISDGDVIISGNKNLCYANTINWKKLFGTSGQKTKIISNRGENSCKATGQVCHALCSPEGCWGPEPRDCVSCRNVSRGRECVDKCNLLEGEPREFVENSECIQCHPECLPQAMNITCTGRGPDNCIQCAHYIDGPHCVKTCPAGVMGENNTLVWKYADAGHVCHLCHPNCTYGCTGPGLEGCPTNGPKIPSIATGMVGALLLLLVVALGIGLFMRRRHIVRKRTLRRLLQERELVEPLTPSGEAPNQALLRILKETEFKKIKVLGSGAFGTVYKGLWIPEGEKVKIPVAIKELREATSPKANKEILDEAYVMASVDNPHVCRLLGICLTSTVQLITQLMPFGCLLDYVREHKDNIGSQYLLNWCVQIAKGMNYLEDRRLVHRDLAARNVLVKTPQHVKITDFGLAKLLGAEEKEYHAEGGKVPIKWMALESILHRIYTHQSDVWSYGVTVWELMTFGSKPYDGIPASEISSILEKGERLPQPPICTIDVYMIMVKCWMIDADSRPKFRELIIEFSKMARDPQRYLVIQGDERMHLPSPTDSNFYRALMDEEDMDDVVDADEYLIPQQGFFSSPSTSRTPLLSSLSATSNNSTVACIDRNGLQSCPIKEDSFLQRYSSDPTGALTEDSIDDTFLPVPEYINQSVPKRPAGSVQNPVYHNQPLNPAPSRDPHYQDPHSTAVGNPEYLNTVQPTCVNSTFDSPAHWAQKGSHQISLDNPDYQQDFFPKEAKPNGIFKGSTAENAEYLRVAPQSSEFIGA
Assay Readout: IC50
Obs Value: 21

// switching to the query compound
Given the compound `O=c1c2ccc(Cl)cc2nc(-c2ccccc2)n1-c1nnc(-c2ccccc2C2CC2)o1` and test system Epidermal growth factor receptor (Homo sapiens, UniProt P00533), the measured IC50 is 102

---

Target Or System: Phosphatidylinositol 4,5-bisphosphate 3-kinase catalytic subunit delta isoform (Homo sapiens, UniProt O00329)
Sequence (O00329 whole entry, canonical isoform): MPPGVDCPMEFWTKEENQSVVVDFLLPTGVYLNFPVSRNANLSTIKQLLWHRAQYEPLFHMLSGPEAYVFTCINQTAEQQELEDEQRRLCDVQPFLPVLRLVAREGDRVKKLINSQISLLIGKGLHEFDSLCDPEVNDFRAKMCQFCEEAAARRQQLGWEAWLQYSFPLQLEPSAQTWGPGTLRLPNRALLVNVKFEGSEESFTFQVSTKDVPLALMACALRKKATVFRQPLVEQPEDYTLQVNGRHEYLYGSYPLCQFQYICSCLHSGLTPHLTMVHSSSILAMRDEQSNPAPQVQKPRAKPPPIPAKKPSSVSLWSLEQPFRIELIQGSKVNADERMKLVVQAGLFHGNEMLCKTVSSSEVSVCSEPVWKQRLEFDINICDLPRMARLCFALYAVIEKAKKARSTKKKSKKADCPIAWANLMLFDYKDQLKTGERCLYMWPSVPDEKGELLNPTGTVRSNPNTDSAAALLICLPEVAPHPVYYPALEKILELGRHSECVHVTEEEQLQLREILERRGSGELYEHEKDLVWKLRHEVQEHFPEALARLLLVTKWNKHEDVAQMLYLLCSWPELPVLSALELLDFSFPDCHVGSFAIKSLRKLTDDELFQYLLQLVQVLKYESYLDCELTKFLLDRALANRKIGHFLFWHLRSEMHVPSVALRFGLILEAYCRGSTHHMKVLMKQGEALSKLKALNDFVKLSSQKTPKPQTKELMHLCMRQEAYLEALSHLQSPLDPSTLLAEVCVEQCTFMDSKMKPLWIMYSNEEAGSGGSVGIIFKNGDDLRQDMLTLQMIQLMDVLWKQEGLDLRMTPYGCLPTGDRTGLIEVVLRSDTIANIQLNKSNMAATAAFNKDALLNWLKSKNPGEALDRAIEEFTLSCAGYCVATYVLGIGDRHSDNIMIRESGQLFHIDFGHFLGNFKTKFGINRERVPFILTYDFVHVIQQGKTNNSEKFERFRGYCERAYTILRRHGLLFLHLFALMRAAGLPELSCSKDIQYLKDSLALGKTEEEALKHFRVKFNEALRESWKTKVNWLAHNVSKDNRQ
Procedure Text: Inhibition of PI3Kdelta (unknown origin) incubated for 90 mins by [gamma-33P]-ATP based scintillation counting method
Assay Readout: IC50 (nM)
Quick reminder: number only, in nM, skip the unit.

Smiles Repr: N#Cc1c(N)ncnc1N1CSC[C@H]1c1nc2cccc(Cl)c2c(=O)n1-c1cccs1
IC50 / nM: 140

IC50 recorded for this molecule, `CN1CCN(C)/C(=N/c2ccc([N+](=O)[O-])cc2C(=O)Nc2ccccc2)C1` , is 82

Data provenance: ChEMBL document CHEMBL5230137
